- experimental system: TYK2 (Homo sapiens)
- Construct: Degradation of TYK2 in cells was quantitatively measured using Meso Scale Discovery (MSD) technology; endogenous in cells; host or cells: OCI-LY10
- Sequence (P29597 whole entry): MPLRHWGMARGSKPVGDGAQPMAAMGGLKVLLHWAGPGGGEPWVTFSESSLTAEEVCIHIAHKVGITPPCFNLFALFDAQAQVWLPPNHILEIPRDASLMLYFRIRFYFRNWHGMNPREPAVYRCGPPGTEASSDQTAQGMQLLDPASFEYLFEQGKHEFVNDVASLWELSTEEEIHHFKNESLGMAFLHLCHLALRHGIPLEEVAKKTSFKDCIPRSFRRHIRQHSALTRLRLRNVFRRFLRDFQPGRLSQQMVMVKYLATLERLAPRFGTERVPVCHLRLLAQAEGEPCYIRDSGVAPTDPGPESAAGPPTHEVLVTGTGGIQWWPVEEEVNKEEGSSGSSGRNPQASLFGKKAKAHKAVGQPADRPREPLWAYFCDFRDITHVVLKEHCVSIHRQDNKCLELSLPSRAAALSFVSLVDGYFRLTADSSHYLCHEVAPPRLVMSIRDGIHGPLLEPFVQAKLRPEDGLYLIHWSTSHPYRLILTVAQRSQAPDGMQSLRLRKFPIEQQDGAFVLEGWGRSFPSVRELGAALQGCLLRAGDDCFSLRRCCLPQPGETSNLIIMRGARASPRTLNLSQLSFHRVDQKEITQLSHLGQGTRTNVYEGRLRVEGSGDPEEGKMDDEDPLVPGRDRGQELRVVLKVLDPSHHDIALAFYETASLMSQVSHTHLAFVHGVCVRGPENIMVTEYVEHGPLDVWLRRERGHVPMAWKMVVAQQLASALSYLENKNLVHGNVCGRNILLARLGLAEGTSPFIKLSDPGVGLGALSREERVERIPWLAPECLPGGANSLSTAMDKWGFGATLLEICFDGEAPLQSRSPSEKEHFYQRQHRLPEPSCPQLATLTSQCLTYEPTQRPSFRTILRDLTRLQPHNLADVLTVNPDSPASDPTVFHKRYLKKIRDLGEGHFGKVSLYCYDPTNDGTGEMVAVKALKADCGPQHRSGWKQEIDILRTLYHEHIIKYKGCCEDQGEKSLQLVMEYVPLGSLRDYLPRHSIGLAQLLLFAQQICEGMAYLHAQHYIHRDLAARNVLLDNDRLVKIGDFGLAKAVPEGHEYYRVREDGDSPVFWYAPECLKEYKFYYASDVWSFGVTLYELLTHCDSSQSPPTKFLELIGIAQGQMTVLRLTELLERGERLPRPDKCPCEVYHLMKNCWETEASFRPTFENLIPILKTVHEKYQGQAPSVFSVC
- experiment description: TYK2 MSD degradation in OCI-LY10 cells
- Format: cell-based
- settings: OCI-LY10 cells, 4 to 24 hours incubation, read-out: TYK2 MSD OCI-LY10 Rel-DC50
Recorded DC50, one value per entry.

Answered examples (5):
compound	DC50
CNc1cc(N2CCc3c(-c4ccc(CN5CC6(CCN(Cc7c(C)ccc(N8CCC(=O)NC8=O)c7C)CC6(F)F)C5)cn4)cccc32)nn2c(C(=O)N[C@@H]3C[C@@H]3F)cnc12	< 10 nM
CNc1cc(N2CCc3c(CN4CCC(N5CC(CN6CCN(c7ccc8c(c7)n(C)c(=O)n8C7CCC(=O)NC7=O)CC6)C5)C(F)(F)C4)cccc32)nn2c(C(=O)N[C@@H]3C[C@@H]3F)cnc12 (stereo partly shown)	< 1 nM
CNc1cc(-c2cn(C3CCN(CCC4CCN(C(=O)c5ccc(Cl)c(N6CCC(=O)NC6=O)c5)CC4)CC3)c3ccccc23)nn2c(C(=O)N[C@@H]3C[C@@H]3F)cnc12	> 100 nM
CNc1cc(N2CCc3c(-c4ccc(CN5CCC6(CCN(C(=O)c7cc(F)c(OC)c(N8CCC(=O)NC8=O)c7)CC6)C(F)(F)C5)cn4)cccc32)nn2c(C(=O)N[C@@H]3C[C@@H]3F)cnc12	< 10 nM
CNc1cc(N2CCc3c(-c4ccc(CN5CCC(N6CCC(CC#Cc7ccc8c(c7)n(C)c(=O)n8C7CCC(=O)NC7=O)CC6)C(F)(F)C5)cn4)cccc32)nn2c(C(=O)N[C@@H]3C[C@@H]3F)cnc12 (stereo partly shown)	< 10 nM

Give the reported value of DC50 for this record: `CNc1cc(N2CCc3c(-c4ccc(CN5CC6(CCC(N(C)c7ccc(Cl)c(N8CCC(=O)NC8=O)c7)CC6)C5)cn4)cccc32)nn2c(C(=O)N[C@@H]3CC[C@H]3OC)cnc12`
< 10 nM

Tell me its DC50 given `CNc1cc(N2CCc3c(N4CC(CN5CCN(C6CCN(C(=O)c7ccc(Cl)c(N8CCC(=O)NC8=O)c7)CC6)CC5)C4)cccc32)nn2c(C(=O)N[C@@H]3C[C@@H]3F)cnc12` as the entry.
> 100 nM

Provide measured DC50 value, entry: CNc1cc(N2CCc3c(CN4CCC(CN5CCC(N6CCN(C(=O)c7ccc(Cl)c(N8CCC(=O)NC8=O)c7)CC6)CC5)C(F)(F)C4)cccc32)nn2c(C(=O)N[C@@H]3C[C@@H]3F)cnc12 (stereo partly shown)
< 10 nM

Dear colleague, please send me the reported DC50 for `CNc1cc(N2CCc3c(-c4cnc(CN5CC6(CCN(C(=O)c7ccc(Cl)c(N8CCC(=O)NC8=O)c7)CC6)C5)nc4)cccc32)nn2c(C(=O)N[C@@H]3C[C@@H]3F)cnc12` when you can.
< 10 nM

Tell me measured DC50 for CNc1cc(N2CCc3c(N4CCC(CN5CCC6(CC5)CCN(c5ccc(Cl)c(C7CCC(=O)NC7=O)c5)CC6)CC4)cccc32)nn2c(C(=O)N[C@@H]3C[C@@H]3F)cnc12 (stereo partly shown) please.
10 to 100 nM

# return recorded DC50 for input `CNc1cc(N2CCc3c(CN4CCC(CCN5CCN(C(=O)c6ccc(Cl)c(N7CCC(=O)NC7=O)c6)CC5)CC4)cccc32)nn2c(C(=O)N[C@@H]3C[C@@H]3F)cnc12`
< 10 nM

Read the entry CNc1cc(N2CCc3c(-c4ccc(N5CCN(CC6CCN(c7ccc(Cl)c(C8CCC(=O)NC8=O)c7)CC6)CC5)cn4)cccc32)nn2c(C(=O)NC3CC3F)cnc12 (mixture of isomers) and write its reported DC50.
< 10 nM

Sourced from patent US20260125400A1
